Cited source for all entries: paper PMC7889231

system: HepG-2; assay: MTT anti-proliferative assay, HepG-2; format: cell-based, human; conditions: Homo sapiens, HepG2, read-out: IC50 HepG-2
Measured Metric: IC50

COc1ccc2nc(Cl)c(C3CC(c4ccc(N)cc4)=NN3c3ccc([N+](=O)[O-])cc3[N+](=O)[O-])cc2c1 (centres unmarked) | 3.14 µM

// IC50 value for COc1ccc2nc(Cl)c(C3CC(c4ccc(Cl)cc4)=NN3c3ccc([N+](=O)[O-])cc3[N+](=O)[O-])cc2c1 (centres unmarked) : 2.64 µM

---

tested on: HepG-2, HCT-116, and MCF-7; assay: MTT anti-proliferative assay, ranges stated over several cell lines; type: cell-based; conditions: Homo sapiens; range over HepG-2, HCT-116 and MCF-7 and over the listed compounds; read-out: IC50 values ranging (all tested cell lines)
Measured Metric: IC50

A selection of reference data follows.
COc1ccc2nc(Cl)c(/C=C/C(=O)c3ccc(Cl)cc3)cc2c1 | 22.4 to 45.5 µM
COc1ccc2nc(Cl)c(-c3cc(-c4ccc(Cl)cc4)nc(N)n3)cc2c1 | 10.2 to 17.6 µM
COc1ccc2nc(Cl)c(C3CC(c4cc(OC)c(OC)c(OC)c4)=NN3c3ccc([N+](=O)[O-])cc3[N+](=O)[O-])cc2c1 (stereo not shown) | 1.78 to 9.19 µM

Next compound, please.
Observed IC50 on HepG-2, HCT-116, and MCF-7, entry `COc1ccc2nc(Cl)c(-c3cc(-c4ccc(N)cc4)nc(N)n3)cc2c1` , equals 22.4 to 45.5 µM

---

tested on: HepG-2, HCT-116, and MCF-7; experiment: MTT anti-proliferative assay, ranges stated over several cell lines; assay type: cell-based; settings: Homo sapiens; range over HepG-2, HCT-116 and MCF-7 and over the listed compounds; read-out: IC50 values ranging (all tested cell lines)
Measured Metric: IC50

As a guide, the following entries are already answered.
COc1ccc2nc(Cl)c(C3CC(c4ccc(N)cc4)=NN3C(N)=O)cc2c1 (stereo not shown) | 10.2 to 17.6 µM
COc1ccc2nc(Cl)c(C3CC(c4ccc(Cl)cc4)=NN3C(N)=O)cc2c1 (stereo not shown) | 10.2 to 17.6 µM
COc1ccc2nc(Cl)c(C3CC(c4ccc(Cl)cc4)=NN3)cc2c1 (stereo not shown) | 22.4 to 45.5 µM

Let's switch to this compound now.
Entry COc1ccc2nc(Cl)c(C3CC(c4ccc(Cl)cc4)=NN3c3ccccc3)cc2c1 (stereo not shown) ; IC50 = 1.78 to 9.19 µM

---

Measured Metric: melting point

COc1ccc2nc(Cl)c(C3CC(c4cc(OC)c(OC)c(OC)c4)=NN3C(N)=S)cc2c1 (stereo not drawn) [Compound 16] | 121 to 122 °C
COc1ccc2nc(Cl)c(-c3cc(-c4ccc(N)cc4)nc(=S)[nH]3)cc2c1 [Compound 27] | 146 to 147 °C
COc1ccc2nc(Cl)c(-c3cc(-c4cc(OC)c(OC)c(OC)c4)nc(=S)[nH]3)cc2c1 [Compound 28] | 141 to 142 °C
COc1ccc2nc(Cl)c(-c3cc(-c4ccc(Cl)cc4)nc(N)n3)cc2c1 [Compound 29] | 195 to 196 °C
COc1ccc2nc(Cl)c(-c3cc(-c4ccc(Cl)cc4)nc(=S)[nH]3)cc2c1 [Compound 26] | 155 to 156 °C

Turning to the following compound.
So, COc1ccc2nc(Cl)c(C3CC(c4ccc(Cl)cc4)=NN3)cc2c1 (stereo not drawn) [Compound 8] ? Its melting point was 118 to 119 °C

---

tested on: HepG-2, HCT-116, and MCF-7; assay: MTT anti-proliferative assay, ranges stated over several cell lines; assay type: cell-based; details: Homo sapiens; range over HepG-2, HCT-116 and MCF-7 and over the listed compounds; read-out: IC50 values ranging (all tested cell lines)
Documented IC50 across a set of molecules

Worked set:
COc1ccc2nc(Cl)c(C3CC(c4ccc(N)cc4)=NO3)cc2c1 (centres unmarked) [Compound 12] | 22.4 to 45.5 µM
COc1ccc2nc(Cl)c(C3CC(c4cc(OC)c(OC)c(OC)c4)=NN3c3ccccc3)cc2c1 (centres unmarked) [Compound 22] | 1.78 to 9.19 µM
COc1ccc2nc(Cl)c(C3CC(c4ccc(N)cc4)=NN3c3ccccc3)cc2c1 (centres unmarked) [Compound 21] | 1.78 to 9.19 µM
COc1ccc2nc(Cl)c(-c3cc(-c4ccc(Cl)cc4)nc(=S)[nH]3)cc2c1 [Compound 26] | 1.78 to 9.19 µM
COc1ccc2nc(Cl)c(-c3cc(-c4cc(OC)c(OC)c(OC)c4)nc(=O)[nH]3)cc2c1 [Compound 34] | 10.2 to 17.6 µM

Field IC50 (entry COc1ccc2nc(Cl)c(/C=C/C(=O)c3ccc(N)cc3)cc2c1 [Compound 6] ) reads 22.4 to 45.5 µM

Summary for this molecule, COc1ccc2nc(Cl)c(-c3cc(-c4cc(OC)c(OC)c(OC)c4)nc(=S)[nH]3)cc2c1 [Compound 28] : IC50 is 1.78 to 9.19 µM

Sample COc1ccc2nc(Cl)c(C3CC(c4ccc(N)cc4)=NN3C(N)=S)cc2c1 (centres unmarked) [Compound 15] ; IC50 observed: 10.2 to 17.6 µM

---

tested on: HCT-116; assay: MTT anti-proliferative assay, HCT-116; assay type: cell-based, human; details: Homo sapiens, HCT-116, MTT; mean ± SD of three experiments; read-out: IC50 HCT-116
Could you mark each record True if its IC50 falls strictly under 10 µM, and False if it equals or exceeds it?

Completed entries (count: 5):
COc1ccc2nc(Cl)c(-c3cc(-c4ccc(Cl)cc4)nc(N)n3)cc2c1 [Compound 29] | False
COc1ccc2nc(Cl)c(C3CC(c4ccc(Cl)cc4)=NN3C(N)=S)cc2c1 (stereo not drawn) [Compound 14] | True
COc1ccc2nc(Cl)c(C3CC(c4ccc(Cl)cc4)=NN3C(N)=O)cc2c1 (stereo not drawn) [Compound 17] | False
COc1ccc2nc(Cl)c(C3CC(c4ccc(N)cc4)=NN3C(N)=S)cc2c1 (stereo not drawn) [Compound 15] | False
COc1ccc2nc(Cl)c(C3CC(c4cc(OC)c(OC)c(OC)c4)=NN3C(N)=S)cc2c1 (stereo not drawn) [Compound 16] | True

Please look at the following molecule next.
Request: Say whether its IC50 is strictly beneath 10 µM. Entry: COc1ccc2nc(Cl)c(-c3cc(-c4cc(OC)c(OC)c(OC)c4)nc(N)n3)cc2c1 [Compound 31]
Result: False

---

Measured Metric: melting point

Recorded melting point, per entry:
COc1ccc2nc(Cl)c(C3CC(c4ccc(N)cc4)=NN3C(N)=O)cc2c1 (stereo not drawn) | 130 to 131 °C
COc1ccc2nc(Cl)c(C3CC(c4ccc(Cl)cc4)=NN3C(N)=S)cc2c1 (stereo not drawn) | 136 to 137 °C
COc1ccc2nc(Cl)c(C3CC(c4cc(OC)c(OC)c(OC)c4)=NO3)cc2c1 (stereo not drawn) | 133 to 134 °C
COc1ccc2nc(Cl)c(C3CC(c4ccc(Cl)cc4)=NO3)cc2c1 (stereo not drawn) | 145 to 146 °C
COc1ccc2nc(Cl)c(-c3cc(-c4cc(OC)c(OC)c(OC)c4)nc(=O)[nH]3)cc2c1 | 176 to 177 °C
COc1ccc2nc(Cl)c(C3CC(c4ccc(Cl)cc4)=NN3c3ccc([N+](=O)[O-])cc3[N+](=O)[O-])cc2c1 (stereo not drawn) | 143 to 144 °C
COc1ccc2nc(Cl)c(-c3cc(-c4ccc(N)cc4)nc(N)n3)cc2c1 | 175 to 176 °C
COc1ccc2nc(Cl)c(C3CC(c4cc(OC)c(OC)c(OC)c4)=NN3c3ccccc3)cc2c1 (stereo not drawn) | 136 to 137 °C
COc1ccc2nc(Cl)c(/C=C/C(=O)c3cc(OC)c(OC)c(OC)c3)cc2c1 | 127 to 128 °C
COc1ccc2nc(Cl)c(C3CC(c4ccc(N)cc4)=NN3C(N)=S)cc2c1 (stereo not drawn) | 123 to 124 °C

Consider COc1ccc2nc(Cl)c(C3CC(c4ccc(N)cc4)=NN3)cc2c1 (stereo not drawn) . Its measured melting point is 122 to 123 °C

// melting point lookup, compound = COc1ccc2nc(Cl)c(C3CC(c4ccc(Cl)cc4)=NN3C(N)=O)cc2c1 (stereo not drawn) , result: 135 to 136 °C

---

# maps each entry to its melting point

Solved entries:
COc1ccc2nc(Cl)c(C3CC(c4ccc(N)cc4)=NO3)cc2c1 (stereo not drawn) [Compound 12] | 127 to 128 °C
COc1ccc2nc(Cl)c(-c3cc(-c4cc(OC)c(OC)c(OC)c4)nc(N)n3)cc2c1 [Compound 31] | 162 to 163 °C
COc1ccc2nc(Cl)c(/C=C/C(=O)c3ccc(Cl)cc3)cc2c1 [Compound 5] | 135 to 136 °C
COc1ccc2nc(Cl)c(-c3cc(-c4ccc(Cl)cc4)nc(=O)[nH]3)cc2c1 [Compound 32] | 180 to 181 °C
COc1ccc2nc(Cl)c(C3CC(c4ccc(N)cc4)=NN3c3ccc([N+](=O)[O-])cc3[N+](=O)[O-])cc2c1 (stereo not drawn) [Compound 24] | 139 to 140 °C

Note to self: melting point recorded for COc1ccc2nc(Cl)c(C3CC(c4ccc(N)cc4)=NN3c3ccccc3)cc2c1 (stereo not drawn) [Compound 21] was 136 to 137 °C

response.value for COc1ccc2nc(Cl)c(/C=C/C(=O)c3ccc(N)cc3)cc2c1 [Compound 6] (field: melting point) = 120 to 121 °C

The reported value for COc1ccc2nc(Cl)c(C3CC(c4cc(OC)c(OC)c(OC)c4)=NN3c3ccc([N+](=O)[O-])cc3[N+](=O)[O-])cc2c1 (stereo not drawn) [Compound 25] in terms of melting point is 135 to 136 °C

Query COc1ccc2nc(Cl)c(C3CC(c4cc(OC)c(OC)c(OC)c4)=NN3C(N)=O)cc2c1 (stereo not drawn) [Compound 19] yields melting point of 117 to 118 °C
